# measurement_target: spotted gar bombesin receptor subtype-3 (spotted gar (Lepisosteus oculatus))
# Sequence (main, as listed by the source): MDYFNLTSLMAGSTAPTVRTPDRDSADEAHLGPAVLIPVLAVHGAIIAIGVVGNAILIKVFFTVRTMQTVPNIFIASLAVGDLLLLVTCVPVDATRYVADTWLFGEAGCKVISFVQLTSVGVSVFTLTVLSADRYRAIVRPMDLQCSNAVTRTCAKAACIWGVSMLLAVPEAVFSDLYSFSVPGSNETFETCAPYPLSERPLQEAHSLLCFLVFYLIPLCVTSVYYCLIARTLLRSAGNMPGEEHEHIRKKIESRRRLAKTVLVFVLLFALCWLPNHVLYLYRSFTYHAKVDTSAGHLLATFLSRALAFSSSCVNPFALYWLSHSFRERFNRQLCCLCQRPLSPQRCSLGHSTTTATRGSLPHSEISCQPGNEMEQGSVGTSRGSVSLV
# method: radioligand binding; displacement of 50 pM [125I]-Tyr42-GRP by unlabeled peptide on disaggregated transfected HEK293 cells; 1 h at 21°C; 24.5 mM HEPES pH 7.4, 98 mM NaCl; bound tracer separated by centrifugation
Where no end group is shown, it is not given here.

binder	IC50 [nM]
APLQPGGSPALTKIYPRGSHWAVGHLM (ends and bridges not checked) [gastrin-releasing peptide, unlabeled ligand peptide of the radioligand binding assays]	0.17
